- target desc: Menin (Homo sapiens) (UniProt O00255)
- Sequence (O00255 whole entry, looked up): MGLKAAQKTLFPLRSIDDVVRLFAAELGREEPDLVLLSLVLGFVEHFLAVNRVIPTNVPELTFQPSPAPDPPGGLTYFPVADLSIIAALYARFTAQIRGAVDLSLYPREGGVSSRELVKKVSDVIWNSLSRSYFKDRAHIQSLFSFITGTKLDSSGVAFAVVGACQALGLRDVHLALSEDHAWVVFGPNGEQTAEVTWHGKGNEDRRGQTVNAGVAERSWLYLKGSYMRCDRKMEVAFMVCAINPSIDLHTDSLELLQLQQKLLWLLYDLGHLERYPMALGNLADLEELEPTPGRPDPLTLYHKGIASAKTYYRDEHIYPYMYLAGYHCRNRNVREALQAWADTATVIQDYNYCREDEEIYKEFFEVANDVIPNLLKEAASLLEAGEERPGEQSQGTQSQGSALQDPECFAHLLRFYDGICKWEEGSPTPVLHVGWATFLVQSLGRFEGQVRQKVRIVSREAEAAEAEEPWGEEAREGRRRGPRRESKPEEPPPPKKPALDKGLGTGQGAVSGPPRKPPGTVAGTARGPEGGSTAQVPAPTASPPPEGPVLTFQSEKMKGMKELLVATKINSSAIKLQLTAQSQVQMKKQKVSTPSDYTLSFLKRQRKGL
- test method notes: Confirmation of Inhibitors Targeting the Menin-MLL Interaction in MLL Related Leukemias: Confirmation in an HTRF (commercial TR-FRET) Assay using His-tagged menin and biotin-labeled MLL peptide
- run conditions: His-menin / biotin-MLL peptide binding; series mostly up to 126 µM
Results filed as inconclusive are left out. Active and inactive are the calls of the source. Calls follow the shape of the dose curve; as a rule, active = well fitted inhibition curve with a large enough effect; inconclusive = small, poorly fitted or top-dose-only effect, or effect the other way; inactive = flat fitted curve, though single readings scatter.
Field 'call' accepts true for active, false for inactive

Input line: For "O=C(COC(=O)c1ccc(NS(=O)(=O)c2cccs2)cc1)Nc1nc2c(F)c(F)c(F)cc2s1" , what call appears in the results of this test?
Output line: true

Input line: For O=C(NCC1CCCO1)c1ccc(OC2CCN(C(=O)C3CC3)CC2)cc1 (stereo not drawn) , what call appears in the results of this test?
Output line: false

Input line: For "CCC(=O)NC(=S)Nc1ccc(NC(=S)NC(=O)c2ccc(C)cc2)cc1" , what call appears in the results of this test?
Output line: false
